# Assay text: HUVEC growth inhibition – cell-based, human, primary screen (AID 575);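 also: 100% = median of untreated cell wells with 0.1% DMSO on each plate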
# Protocol conditions: HUVEC proliferation, CellTiter-Glo luminescence, 72 h; at 10 µM; stronger effect = lower value
The following compounds are shown together with reported viability values.
I only need the number, in %, no unit after it.

Worked set:
COC(=O)c1[nH]c(C)c(/C(O)=C2\C(=O)C(=O)N(CCN3CCOCC3)C2c2cccs2)c1C (stereo unspecified): 76.5
CC(OC(=O)CNC(=O)C12CC3CC(CC(C3)C1)C2)C(=O)Nc1ccc(N2CCOCC2)cc1 (stereo unspecified): 101
O=C(c1ccccc1)N1CCN(Cc2ccccc2Br)CC1: 105
CCOC(=O)Cn1nnnc1CN(Cc1ccc(OC)cc1)Cc1cc2cc(C)ccc2[nH]c1=O: 101
C=COCCNC(=O)Nc1ccc(Cl)c(Cl)c1: 101

Prompt line: Report viability for Cc1ccc(-c2ccc(=O)n(CCC(=O)NCCN3CCCCC3C)n2)cc1 (stereo unspecified) please.
Response line: 94.9

Prompt line: Check COc1ccc(C)cc1S(=O)(=O)N(C)CC(=O)Nc1ccc2c(c1)OCO2 too.
Response line: 92.7

Prompt line: Now try Fc1cccc(NCc2cn3ccccc3n2)c1 .
Response line: 105

Prompt line: // next record O=C(CN1C(=O)CCSc2ccccc21)Nc1ccc2c(c1)OCO2
Response line: 97.6

Prompt line: Repeat with COc1ccc(N2C(=O)c3cccc4cccc(c34)C2=O)nn1
Response line: 90.8

Prompt line: # repeat for O=C(CCCn1c(=O)c2sccc2n(Cc2ccc(F)cc2)c1=O)NCc1ccco1
Response line: 51.1

###

# Assay text: reversal of MRP1-mediated doxorubicin resistance, pilot screen, H69AR cells, doxorubicin co-treatment (AID 601)
# Protocol conditions: H69AR cells + 2 uM doxorubicin, CellTiter-Glo, 72 h; measured here: viability with 2 uM doxorubicin; at 10 µM; stronger effect = lower value
Listed here: items and their measured viability.
Field: value (include unit after the number)

Look over these answered cases.
CC(C)(C)NS(=O)(=O)c1ccc(CCC(=O)O)cc1: 100%
O=C(CSc1nnc2scc(-c3ccccc3)n12)Nc1nsc(-c2ccccc2)n1: 75.2%

Prompt line: Find the recorded viability belonging to O=C(Cc1ccccc1)Nc1ccc(CN2CCOCC2)cc1 and report it.
Response line: 91.2%

Prompt line: // same read-out, input: COc1ccc(Cn2c(N)c(C#N)c3nc4ccccc4nc32)cc1OC
Response line: 86.9%

Prompt line: Next record, please: c1ccc(CCc2nn3c(Cn4cnc5ccccc54)nnc3s2)cc1
Response line: 85.4%

Prompt line: Then this molecule: CCOC(=O)c1cnc(-n2nc(C)cc2C)nc1Nc1ccc(N(C)C)cc1
Response line: 26.3%

Prompt line: Another: COC(=O)c1cc(Oc2ccc(C(=O)OC)cc2N)cc(C(=O)OC)c1
Response line: 99.2%

Prompt line: # repeat for O=C(Nc1ccc2c(c1)OCO2)C(c1ccccc1)N1CCC2(CC1)OCCO2 (configuration not stated)
Response line: 88.6%

Prompt line: Another molecule: CCOC(=O)N1CCC(NC(=O)c2ccc3c(c2)sc2nc(-c4cccc(OC)c4)cn23)CC1
Response line: 41.5%

Prompt line: Further, for COC(=O)[C@H](C)NC(=O)Nc1cccc(C(F)(F)F)c1 ?
Response line: 95.7%

Prompt line: And the next one, CN(C(=O)Cn1c(=O)n(CCCCC(=O)NC2CCCC2)c(=O)c2ccccc21)C1CCCCC1 ?
Response line: 80.9%

Prompt line: What do you have for CC(=O)c1ccc(NC(=O)c2cc(CC(C)C)on2)cc1 ?
Response line: 91.1%

Prompt line: Continue with COc1cccc(CN2C(=O)C3(C(C#N)=C(N)OC4=C3C(=O)CCC4)c3ccccc32)c1 (configuration not stated)
Response line: 12.6%

Prompt line: // repeat for CCC1CCCCN1S(=O)(=O)c1ccc(C(=O)Nc2nnc(-c3ccccc3Cl)o2)cc1 (configuration not stated) and report
Response line: 41.8%

Prompt line: What would you report for Cc1cccc(-n2ncc3c(NCc4ccccn4)ncnc32)c1 ?
Response line: 87.8%

Prompt line: Then this molecule: COCC(=O)n1nc(NCc2ccc(OC)cc2)nc1NCc1ccc(OC)cc1
Response line: 90.5%

Prompt line: What about Cc1c(C(=O)NC2CCCc3ccccc32)oc2ccc(S(=O)(=O)N3CCOCC3)cc12 (configuration not stated) ?
Response line: 50.7%

Prompt line: Would you mind doing CC(=O)Nc1cccc(NC(=O)C2CCCN2C(=O)Nc2ccc(C)cc2)c1 (configuration not stated) as well?
Response line: 89.7%

Prompt line: And for Cc1cccc(C)c1NC(=O)c1cc(S(=O)(=O)N2CCOCC2)ccc1F ?
Response line: 89.2%

Prompt line: Another: Cc1ccc(C)c(CSc2nnc(CCN)o2)c1
Response line: 91.8%

Prompt line: Here is the next molecule: CN(C)c1ccc(C2C3=C(CCCC3=O)OC3=C2C(=O)CCC3)cc1
Response line: 89.7%

Prompt line: Could you do the same for Cc1ccccc1Nc1cc2ccccc2c(=O)[nH]1 , please?
Response line: 99.5%

###

# Assay text: HUVEC growth inhibition – cell-based, human, primary screen (AID 575);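 also: 100% = median of untreated cell wells with 0.1% DMSO on each plate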
# Protocol conditions: HUVEC proliferation, CellTiter-Glo luminescence, 72 h; at 10 µM; stronger effect = lower value
# viability annotations
Output spec: scalar in %, unitless text.

// below: answered molecules
C/C=C(\C)c1nnc(NC(=O)OCC)s1: 117
Cc1csc(NC(=O)c2ccccc2C(=O)O)n1: 108
Cc1csc(SCCn2c(N3CCCC3)nc3c2c(=O)[nH]c(=O)n3C)n1: 105
CC(=O)OCC[N+](C)(C)C: 96.7
O=C(CN1CCN(c2nc(-c3ccccc3)cs2)CC1)Nc1ccc2c(c1)OCO2: 89.9
O=C(Nc1cccc2ccccc12)N1CCN(c2ccccc2)CC1: 96.8
CCCn1nc(NC(=O)c2cccs2)c2cc3cc(OC)ccc3nc21: 56.4
Cc1cc(NC(=O)CSc2nnc(C3CC3)n2C)no1: 92.4

Prompt line: # lookup: viability of CCn1ncc(C2=NOC(C(=O)N3CCC(C(N)=O)CC3)C2)c1C (centres undefined)
Response line: 98.6

Prompt line: And then N#C/C(=C\c1ccc(O)c(O)c1)C(=O)NCCCc1ccccc1 , what is it?
Response line: 43.4

Prompt line: Entry COc1ccccc1NC(=O)CSc1nnc(Cn2nnc(-c3ccccc3)n2)n1-c1ccccc1 please
Response line: 88.7

Prompt line: Also, CN(C)C(CNc1nnnn1-c1ccccc1)c1ccco1 (centres undefined) please.
Response line: 79.2

Prompt line: For CCOC(=O)C1CCCN(C(=O)c2cc3c(-c4cccc(OC)c4)nn(C)c3s2)C1 (centres undefined) then?
Response line: 56.1

Prompt line: Try the molecule COc1ccc(C2NC(c3ccc(OC)c(OC)c3OC)C(C)C(=O)C2C)c(OC)c1OC (centres undefined)
Response line: 99.7

Prompt line: Please answer likewise for O=S1(=O)C=C(Sc2nc3ccccc3s2)c2ccccc21
Response line: 9.16

Prompt line: Try this molecule too: CCN(CCCNC(=O)COc1cc(=O)n(CC)c2ccccc12)c1ccccc1
Response line: 56.9

Prompt line: Then Cc1ccc(S(=O)(=O)N2CCCC2)cc1S(=O)(=O)N1CCCC1 ?
Response line: 90.9

###

# Assay text: reversal of MRP1-mediated doxorubicin resistance, pilot screen, H69AR cells, doxorubicin co-treatment (AID 601)
# Protocol conditions: H69AR cells, CellTiter-Glo, 72 h; compound alone cytotoxicity; at 10 µM
Quantity name: viability (%)
Kindly provide the numeric value in % only, without the unit symbol.

Example results:
CCCCOc1ccc(S(=O)(=O)n2c(C)nc3ccccc32)cc1: 87.1
OCCn1c(CSc2nnc(-c3ccco3)n2-c2ccccc2)nc2ccc(Cl)cc21: 84.9
Cc1nc2cc(N3CCCCC3)c(NC(=O)c3cccnc3)cc2c(=O)n1Cc1ccccc1: 28.9
COc1cccc(N2CCN(c3ncnc4c3[nH]c3ccc(F)cc34)CC2C)c1 (stereo unspecified): 3.55
Nc1nc(N)c2nc(-c3ccccc3)c(N)nc2n1: 73.3
CC1CCCCN1C(=O)Cn1nnc(-c2cccnc2)n1 (stereo unspecified): 103
CC(CN(C)Cc1ccccc1)OC(=O)c1ccc2c(c1)OCCO2 (stereo unspecified): 94.1
O=C(CCn1c(=O)c2ccccc2n(CC(=O)NCCC2=CCCCC2)c1=O)NCc1ccco1: 92.2

Prompt line: Any idea what its viability is? The molecule is CN1CCN(C(=O)C2(NC(=O)Nc3cccc(F)c3)CCCCC2)CC1
Response line: 93.9

Prompt line: What do you have for Cc1cccc(NC(=O)CCCCCN2C(=O)c3ccccc3C2=O)n1 ?
Response line: 105

Prompt line: Record: CC1CCCC(NC(=O)CN2CCN(Cc3ccc(Cl)cc3)C2=O)C1C (stereo unspecified)
Response line: 103

###

# Assay text: growth inhibitors of H69AR lung tumor, primary screen, human, duplicate replicates (AID 580);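 also: 100% = mean luminescence of untreated wells and 0% = no signal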
# Protocol conditions: H69AR lung tumor cells viability, ATP luminescence, 72 h; at 10 µM; stronger effect = lower value
Quantity name: viability (%)
Dear colleague, please return just the value in %, with no unit written.

In the examples that follow, each entry is paired with its recorded viability.
Cc1ccc2c(c1)c1c3n2CC(=C2C(=O)OC(C)(C)OC2=O)NC3CCC1 (stereo unspecified): 94.6
c1ccc(CC2CCN(Cc3nc(-c4ccccc4)no3)CC2)cc1: 87.9
O=C(OCCCN1C(=O)c2ccccc2C1=O)c1ccco1: 95.2
CCSc1nnc(-c2ccc(OC)cc2)o1: 81.2
COc1cc(C(=O)Nc2cc(C)ccn2)cc(OC)c1OC: 97.5

Now for another entry.
Prompt line: Can you share its viability? I mean this molecule: O=C(CSc1nc(O)cc(=O)n1-c1ccccc1)N1CCCCC1
Response line: 98.8
